Data provenance is patent US20250223276A1.

EC50 values by entry
test-target: UniProtKB O43614
Sequence (O43614 1-444): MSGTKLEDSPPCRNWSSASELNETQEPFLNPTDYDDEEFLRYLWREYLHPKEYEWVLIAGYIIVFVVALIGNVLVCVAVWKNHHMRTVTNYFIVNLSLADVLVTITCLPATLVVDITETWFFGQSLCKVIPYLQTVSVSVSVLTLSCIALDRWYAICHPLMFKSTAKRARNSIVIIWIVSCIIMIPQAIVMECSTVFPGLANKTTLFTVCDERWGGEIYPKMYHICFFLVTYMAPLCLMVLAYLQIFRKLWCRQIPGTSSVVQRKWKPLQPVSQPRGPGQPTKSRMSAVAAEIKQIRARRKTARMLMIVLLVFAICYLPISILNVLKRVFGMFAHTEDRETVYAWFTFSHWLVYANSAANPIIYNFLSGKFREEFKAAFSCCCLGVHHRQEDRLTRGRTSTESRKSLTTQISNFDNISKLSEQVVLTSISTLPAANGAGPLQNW
protocol: Human OX2R IP1 assay
assay-context: T-Rex CHO cells stably overexpressing human OX2R; IP1 (inositol monophosphate) accumulation, HTRF; 1 hr at 37 degrees C

Q: Provide one value: measured EC50 of CC1CN(S(=O)(=O)N[C@H]2CCN(c3cccnn3)C[C@H]2CO[C@H]2CC[C@@H](c3cccc(F)c3)CC2)C1
Result: > 1000 nM

Q: Provide one value: measured EC50 of CN(C)S(=O)(=O)N[C@H]1CCN(C(=O)c2cnco2)C[C@H]1CO[C@H]1CC[C@@H](c2cccc(F)c2)CC1
Result: < 100 nM

Q: Provide one value: measured EC50 of CN(C)S(=O)(=O)N[C@H]1CCN(C(=O)N2CCC(F)(F)C2)C[C@H]1CO[C@H]1CC[C@@H](c2cccc(F)c2)CC1
Result: < 100 nM

Q: Provide one value: measured EC50 of CN(C)C1CN(S(=O)(=O)N[C@H]2CCN(c3cccnn3)C[C@H]2CO[C@H]2CC[C@@H](c3cccc(F)c3)CC2)C1
Result: > 1000 nM

Q: Provide one value: measured EC50 of O=S(=O)(N[C@H]1CCN(c2cccnn2)C[C@H]1CO[C@H]1CC[C@@H](c2cccc(F)c2)CC1)C1CCC1
Result: > 1000 nM

Q: Provide one value: measured EC50 of COC(=O)N1CC[C@H](NS(=O)(=O)N(C)C)[C@H](CO[C@H]2CC[C@@H](c3cccc(F)c3)CC2)C1
Result: > 1000 nM

###

test-target: UniProtKB O43614
Sequence (O43614 1-444): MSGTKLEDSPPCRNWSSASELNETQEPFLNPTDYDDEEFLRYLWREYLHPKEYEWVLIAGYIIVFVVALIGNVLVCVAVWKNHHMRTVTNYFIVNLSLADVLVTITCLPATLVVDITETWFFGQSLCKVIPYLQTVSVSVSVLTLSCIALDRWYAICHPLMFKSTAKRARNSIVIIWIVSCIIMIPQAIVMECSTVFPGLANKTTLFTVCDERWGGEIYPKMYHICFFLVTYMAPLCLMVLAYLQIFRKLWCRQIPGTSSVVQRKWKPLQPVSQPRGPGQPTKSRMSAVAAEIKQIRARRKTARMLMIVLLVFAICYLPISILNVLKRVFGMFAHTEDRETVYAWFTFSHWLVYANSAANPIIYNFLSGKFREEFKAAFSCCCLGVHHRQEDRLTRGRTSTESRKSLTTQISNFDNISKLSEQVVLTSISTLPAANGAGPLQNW
protocol: Human OX2R IP1 assay
assay-context: T-Rex CHO cells stably overexpressing human OX2R; IP1 (inositol monophosphate) accumulation, HTRF; 1 hr at 37 degrees C
quantity-kind: EC50

Consider the worked cases shown below.
CN(C)S(=O)(=O)N[C@H]1CCN(C(=O)OCC(F)F)C[C@H]1CO[C@H]1CC[C@@H](c2cccc(F)c2)CC1 [Compound 48] : < 100 nM
CN1CC(OC(=O)N2CC[C@H](NS(=O)(=O)N(C)C)[C@H](CO[C@H]3CC[C@@H](c4cccc(F)c4)CC3)C2)C1 [Compound 59] : > 1000 nM
CN(C)S(=O)(=O)N[C@H]1CCN(C(=O)C2(F)CC2)C[C@H]1CO[C@H]1CC[C@@H](c2cccc(F)c2)CC1 [Compound 47] : < 100 nM
O=S(=O)(N[C@H]1CCN(c2cccnn2)C[C@H]1CO[C@H]1CC[C@@H](c2cccc(F)c2)CC1)N1CCC1 [Compound 8] : 100 to 1000 nM

Q: Provide EC50, recorded with UniProtKB O43614, of CC(C)N(C)[C@@H]1CCN(S(=O)(=O)N[C@H]2CCN(c3cccnn3)C[C@H]2CO[C@H]2CC[C@@H](c3cccc(F)c3)CC2)C1 [Compound 57]
Result: > 1000 nM

Q: Provide EC50, recorded with UniProtKB O43614, of CN(C)S(=O)(=O)N[C@H]1CCN(C(=O)OC2CC2)C[C@H]1CO[C@H]1CC[C@@H](c2cccc(F)c2)CC1 [Compound 60]
Result: > 1000 nM

Q: Provide EC50, recorded with UniProtKB O43614, of CN(C)S(=O)(=O)N[C@H]1CCN(C(=O)N2CCOCC2)C[C@H]1CO[C@H]1CC[C@@H](c2cccc(F)c2)CC1 [Compound 55]
Result: < 100 nM

Q: Provide EC50, recorded with UniProtKB O43614, of O=S(=O)(N[C@H]1CCN(c2cccnn2)C[C@H]1CO[C@H]1CC[C@@H](c2cccc(F)c2)CC1)N1CC(C(F)(F)F)C1 [Compound 22]
Result: > 1000 nM

Q: Provide EC50, recorded with UniProtKB O43614, of CN(C1CC1)S(=O)(=O)N[C@H]1CCN(c2cccnn2)C[C@H]1CO[C@H]1CC[C@@H](c2cccc(F)c2)CC1 [Compound 9]
Result: 100 to 1000 nM

Q: Provide EC50, recorded with UniProtKB O43614, of CN(C)S(=O)(=O)N[C@H]1CCN(C(=O)c2cncn2C)C[C@H]1CO[C@H]1CC[C@@H](c2cccc(F)c2)CC1 [Compound 46]
Result: 100 to 1000 nM

Q: Provide EC50, recorded with UniProtKB O43614, of CN1CC(NS(=O)(=O)N[C@H]2CCN(c3cccnn3)C[C@H]2CO[C@H]2CC[C@@H](c3cccc(F)c3)CC2)C1 [Compound 33]
Result: > 1000 nM

Q: Provide EC50, recorded with UniProtKB O43614, of CN1CC2(C1)CN(S(=O)(=O)N[C@H]1CCN(c3cccnn3)C[C@H]1CO[C@H]1CC[C@@H](c3cccc(F)c3)CC1)C2 [Compound 27]
Result: > 1000 nM

Q: Provide EC50, recorded with UniProtKB O43614, of CN(C)S(=O)(=O)N[C@H]1CCN(C(=O)c2cncs2)C[C@H]1CO[C@H]1CC[C@@H](c2cccc(F)c2)CC1 [Compound 45]
Result: < 100 nM

###

test-target: human orexin-2 receptor (OX2R) (Homo sapiens, UniProt O43614)
Sequence (O43614 1-444): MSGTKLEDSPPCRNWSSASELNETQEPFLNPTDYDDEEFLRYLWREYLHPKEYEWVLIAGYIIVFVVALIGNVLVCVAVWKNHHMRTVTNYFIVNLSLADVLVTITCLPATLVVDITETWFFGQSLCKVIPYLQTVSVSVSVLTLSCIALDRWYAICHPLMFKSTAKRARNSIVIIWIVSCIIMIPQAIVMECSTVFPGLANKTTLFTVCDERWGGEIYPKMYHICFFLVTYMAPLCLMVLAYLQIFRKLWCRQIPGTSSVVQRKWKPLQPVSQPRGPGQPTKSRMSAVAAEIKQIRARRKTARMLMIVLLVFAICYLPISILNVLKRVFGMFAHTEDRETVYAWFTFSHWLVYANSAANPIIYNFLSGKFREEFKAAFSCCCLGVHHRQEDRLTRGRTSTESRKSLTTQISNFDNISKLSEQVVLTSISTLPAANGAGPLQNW
protocol: Human OX2R IP1 assay
assay-context: T-Rex CHO cells stably overexpressing human OX2R; IP1 (inositol monophosphate) accumulation, HTRF; 1 hr at 37 degrees C
quantity-kind: EC50

CS(=O)(=O)N[C@H]1CCN(C(=O)[C@H]2CCOC2)C[C@H]1CO[C@H]1CC[C@@H](c2cccc(F)c2)CC1 [Compound 7] : < 100 nM
CN(C)S(=O)(=O)N[C@H]1CCN(C(=O)[C@H]2C[C@H](F)C2)C[C@H]1CO[C@H]1CC[C@@H](c2cccc(F)c2)CC1 [Compound 54] : < 100 nM

Kindly consider the entry below.
Q: Provide one value: measured EC50 of O=S(=O)(N[C@H]1CCN(c2cccnn2)C[C@H]1CO[C@H]1CC[C@@H](c2cccc(F)c2)CC1)N1CC(C(F)F)C1 [Compound 25]
Result: > 1000 nM

###

test-target: human orexin-2 receptor (OX2R) (Homo sapiens, UniProt O43614)
Construct: expressed in transfected cells
protocol: Human OX2R IP1 assay
Type: cell-based
assay-context: T-Rex CHO cells stably overexpressing human OX2R; IP1 (inositol monophosphate) accumulation, HTRF; 1 hr at 37 degrees C
Description: T-Rex CHO cells stably overexpressing the human orexin-2 receptor (OX2R) are induced overnight with 1 μg/mL of doxycycline in a T225 flask. 24 hours post induction, cells are lifted with accutase and plated into a 384-well proxy plate at 30,000 cells/well. […] The plates are allowed to incubate for 1 hour at room temperature and are then read in the En Vision® multimode plate reader, measuring inositol phosphate levels. […]
pEC50: −log10 of the molar value.
pEC50 values by entry

Consider the worked cases shown below.
CNS(=O)(=O)N[C@H]1CCN(c2cccnn2)C[C@H]1CO[C@H]1CC[C@@H](c2cccc(F)c2)CC1 : > 7.00
COCCN(C)S(=O)(=O)N[C@H]1CCN(c2cccnn2)C[C@H]1CO[C@H]1CC[C@@H](c2cccc(F)c2)CC1 : < 6.00
CN(C)S(=O)(=O)N[C@H]1CCN(C(=O)[C@@H]2CCOC2)C[C@H]1CO[C@H]1CC[C@@H](c2cccc(F)c2)CC1 : > 7.00
O=S(=O)(N[C@H]1CCN(c2cccnn2)C[C@H]1CO[C@H]1CC[C@@H](c2cccc(F)c2)CC1)N1CC(CF)C1 : < 6.00
CN(C)S(=O)(=O)N[C@H]1CCN(C(=O)C2CCC(F)(F)C2)C[C@H]1CO[C@H]1CC[C@@H](c2cccc(F)c2)CC1 (stereo partly shown) : < 6.00

Q: Provide one value: measured pEC50 of O=S(=O)(N[C@H]1CCN(c2cccnn2)C[C@H]1CO[C@H]1CC[C@@H](c2cccc(F)c2)CC1)N1CC(F)C1
Result: 6.00 to 7.00

Q: Provide one value: measured pEC50 of CCS(=O)(=O)N[C@H]1CCN(c2cccnn2)C[C@H]1CO[C@H]1CC[C@@H](c2cccc(F)c2)CC1
Result: > 7.00

Q: Provide one value: measured pEC50 of C[C@@H](OC(=O)N1CC[C@H](NS(=O)(=O)N(C)C)[C@H](CO[C@H]2CC[C@@H](c3cccc(F)c3)CC2)C1)C(F)F
Result: 6.00 to 7.00

Q: Provide one value: measured pEC50 of CC(C)N(C)[C@H]1CCN(S(=O)(=O)N[C@H]2CCN(c3cccnn3)C[C@H]2CO[C@H]2CC[C@@H](c3cccc(F)c3)CC2)C1
Result: < 6.00

Q: Provide one value: measured pEC50 of CN(C)S(=O)(=O)N[C@H]1CCN(C(=O)OCC2(F)CCC2)C[C@H]1CO[C@H]1CC[C@@H](c2cccc(F)c2)CC1
Result: < 6.00

Q: Provide one value: measured pEC50 of CN1CCCC1C(=O)N1CC[C@H](NS(=O)(=O)N(C)C)[C@H](CO[C@H]2CC[C@@H](c3cccc(F)c3)CC2)C1 (stereo partly shown)
Result: < 6.00

Q: Provide one value: measured pEC50 of CS(=O)(=O)N[C@H]1CCN(C(=O)C2(F)CCC2)C[C@H]1CO[C@H]1CC[C@@H](c2cccc(F)c2)CC1
Result: > 7.00

Q: Provide one value: measured pEC50 of O=S(=O)(N[C@H]1CCN(c2cccnn2)C[C@H]1CO[C@H]1CC[C@@H](c2cccc(F)c2)CC1)N1CCCC1
Result: < 6.00
